Every entry's value here was drawn from paper PMC6458995.

# experimental_target: RSK1 (Homo sapiens, UniProt Q15418)
# Construct: lines 1-140) and Reaction Biology
# Sequence (Q15418 whole entry): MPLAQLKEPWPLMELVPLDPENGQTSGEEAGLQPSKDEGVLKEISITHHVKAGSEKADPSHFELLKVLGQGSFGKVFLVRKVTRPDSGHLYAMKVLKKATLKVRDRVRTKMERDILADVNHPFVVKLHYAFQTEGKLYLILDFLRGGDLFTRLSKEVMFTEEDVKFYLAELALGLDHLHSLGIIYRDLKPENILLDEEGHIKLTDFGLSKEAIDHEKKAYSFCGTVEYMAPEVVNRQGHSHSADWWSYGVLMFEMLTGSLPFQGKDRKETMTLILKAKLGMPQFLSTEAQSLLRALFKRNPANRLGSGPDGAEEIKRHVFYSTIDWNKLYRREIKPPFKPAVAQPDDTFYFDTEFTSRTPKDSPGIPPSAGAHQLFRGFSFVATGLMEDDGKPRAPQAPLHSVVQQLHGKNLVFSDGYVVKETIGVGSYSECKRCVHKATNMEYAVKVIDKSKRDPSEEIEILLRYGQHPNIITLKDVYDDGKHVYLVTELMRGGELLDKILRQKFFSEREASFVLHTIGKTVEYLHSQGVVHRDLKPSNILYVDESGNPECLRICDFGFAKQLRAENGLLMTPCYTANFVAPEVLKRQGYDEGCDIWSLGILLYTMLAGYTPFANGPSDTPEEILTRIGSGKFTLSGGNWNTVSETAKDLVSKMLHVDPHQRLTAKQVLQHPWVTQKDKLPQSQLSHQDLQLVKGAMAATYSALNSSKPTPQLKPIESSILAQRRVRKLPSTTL
# assay_notes: Dundee kinase panel
# Type: biochemical
# condition_label: read-out: residual activity
remaining activity at 1 µM overview
Respond with the bare value in %.

INPUT: Given the compound COCCOc1ccc(-c2cn(-c3ccccc3)c3nc[nH]c(=O)c23)cc1 , what is its reported remaining activity at 1 µM?
OUTPUT: 86

INPUT: Given the compound Oc1ncnc2c1c(-c1ccccc1)cn2-c1ccccc1 , what is its reported remaining activity at 1 µM?
OUTPUT: 89

INPUT: Given the compound O=C1Cc2c([nH]c3ccc(Br)cc23)-c2ccccc2N1 , what is its reported remaining activity at 1 µM?
OUTPUT: 84

INPUT: Given the compound O=C1Nc2ccc(I)cc2/C1=C/c1cc(Br)c(O)c(Br)c1 , what is its reported remaining activity at 1 µM?
OUTPUT: 32

* * *

# experimental_target: ZAP70 (Homo sapiens)
# Construct: lines 1-140) and Reaction Biology
# Sequence (P43403 whole entry): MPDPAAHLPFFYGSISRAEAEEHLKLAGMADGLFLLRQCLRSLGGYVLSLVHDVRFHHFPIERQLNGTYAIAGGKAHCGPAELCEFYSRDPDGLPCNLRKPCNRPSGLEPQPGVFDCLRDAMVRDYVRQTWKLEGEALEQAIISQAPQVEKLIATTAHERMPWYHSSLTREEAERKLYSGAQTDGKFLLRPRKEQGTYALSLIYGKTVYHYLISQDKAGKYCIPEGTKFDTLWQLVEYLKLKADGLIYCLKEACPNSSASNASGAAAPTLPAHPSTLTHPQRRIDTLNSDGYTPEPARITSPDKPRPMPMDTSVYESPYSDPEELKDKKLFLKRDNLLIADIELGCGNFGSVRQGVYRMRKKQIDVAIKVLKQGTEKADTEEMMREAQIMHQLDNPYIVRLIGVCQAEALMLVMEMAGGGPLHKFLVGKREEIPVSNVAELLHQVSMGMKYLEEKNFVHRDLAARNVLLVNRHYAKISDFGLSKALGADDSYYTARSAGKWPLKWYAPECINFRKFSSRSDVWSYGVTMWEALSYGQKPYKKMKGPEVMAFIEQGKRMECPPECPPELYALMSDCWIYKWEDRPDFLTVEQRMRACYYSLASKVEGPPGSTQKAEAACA
# assay_notes: Dundee kinase panel
# Type: biochemical
# condition_label: read-out: residual activity
remaining activity at 1 µM overview

// solved cases for remaining activity at 1 µM follow
{"smiles_code": "O=C1Nc2ccc(I)cc2/C1=C/c1cc(Br)c(O)c(Br)c1", "result": "98%"}
{"smiles_code": "Oc1ncnc2c1c(-c1ccccc1)cn2-c1ccccc1", "result": "114%"}
{"smiles_code": "COCCOc1ccc(-c2cn(-c3ccccc3)c3nc[nH]c(=O)c23)cc1", "result": "94%"}

INPUT: Given the compound O=C1Cc2c([nH]c3ccc(Br)cc23)-c2ccccc2N1 , what is its reported remaining activity at 1 µM?
OUTPUT: 59%

* * *

# experimental_target: EPH-B1 (Homo sapiens)
# Construct: lines 1-140) and Reaction Biology
# Sequence (P54762 18-984): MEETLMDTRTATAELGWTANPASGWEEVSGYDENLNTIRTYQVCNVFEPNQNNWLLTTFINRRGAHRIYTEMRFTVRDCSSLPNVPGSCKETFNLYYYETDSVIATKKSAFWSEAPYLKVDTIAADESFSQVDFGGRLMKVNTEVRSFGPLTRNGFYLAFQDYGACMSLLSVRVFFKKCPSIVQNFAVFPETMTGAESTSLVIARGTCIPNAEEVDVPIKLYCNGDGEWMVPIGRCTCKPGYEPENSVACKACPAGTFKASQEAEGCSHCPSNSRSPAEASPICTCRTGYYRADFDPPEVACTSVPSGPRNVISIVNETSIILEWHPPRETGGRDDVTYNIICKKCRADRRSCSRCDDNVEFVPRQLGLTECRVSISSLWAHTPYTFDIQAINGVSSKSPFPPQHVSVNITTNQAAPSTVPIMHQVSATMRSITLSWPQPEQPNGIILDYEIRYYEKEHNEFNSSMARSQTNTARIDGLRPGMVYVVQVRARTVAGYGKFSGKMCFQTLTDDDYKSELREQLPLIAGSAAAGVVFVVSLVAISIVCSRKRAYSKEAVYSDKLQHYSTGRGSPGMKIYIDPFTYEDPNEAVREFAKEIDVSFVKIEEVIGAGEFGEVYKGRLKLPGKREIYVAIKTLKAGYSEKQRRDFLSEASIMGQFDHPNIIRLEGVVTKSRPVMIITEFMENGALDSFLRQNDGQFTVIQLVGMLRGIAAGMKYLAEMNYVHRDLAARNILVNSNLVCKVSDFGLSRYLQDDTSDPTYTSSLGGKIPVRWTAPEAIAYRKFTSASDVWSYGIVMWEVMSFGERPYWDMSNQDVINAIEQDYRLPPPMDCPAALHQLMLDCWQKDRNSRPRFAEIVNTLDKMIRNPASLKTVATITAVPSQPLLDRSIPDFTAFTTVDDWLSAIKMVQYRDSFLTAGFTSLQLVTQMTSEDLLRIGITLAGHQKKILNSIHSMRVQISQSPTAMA
# assay_notes: Dundee kinase panel
# Format: biochemical
# condition_label: read-out: residual activity
property: remaining activity at 1 µM (%)
Respond with the bare value in %.

// solved cases for remaining activity at 1 µM follow
{"compound": "O=C1Nc2ccc(I)cc2/C1=C/c1cc(Br)c(O)c(Br)c1 [GW5074]", "experimental_target": "EPH-B1 (Homo sapiens)", "display_unit": "%", "numeric_readout": 94}
{"compound": "COCCOc1ccc(-c2cn(-c3ccccc3)c3nc[nH]c(=O)c23)cc1 [DMX-5804]", "experimental_target": "EPH-B1 (Homo sapiens)", "display_unit": "%", "numeric_readout": 108}
{"compound": "O=C1Cc2c([nH]c3ccc(Br)cc23)-c2ccccc2N1 [Kenpaullone]", "experimental_target": "EPH-B1 (Homo sapiens)", "display_unit": "%", "numeric_readout": 94}

Please look at the following compound next.
INPUT: Given the compound Oc1ncnc2c1c(-c1ccccc1)cn2-c1ccccc1 [F1386-0303] , what is its reported remaining activity at 1 µM?
OUTPUT: 86

* * *

remaining activity at 1 µM overview
# experimental_target: CLK2 (Homo sapiens)
# Construct: lines 1-140) and Reaction Biology
# Sequence (P49760 whole entry): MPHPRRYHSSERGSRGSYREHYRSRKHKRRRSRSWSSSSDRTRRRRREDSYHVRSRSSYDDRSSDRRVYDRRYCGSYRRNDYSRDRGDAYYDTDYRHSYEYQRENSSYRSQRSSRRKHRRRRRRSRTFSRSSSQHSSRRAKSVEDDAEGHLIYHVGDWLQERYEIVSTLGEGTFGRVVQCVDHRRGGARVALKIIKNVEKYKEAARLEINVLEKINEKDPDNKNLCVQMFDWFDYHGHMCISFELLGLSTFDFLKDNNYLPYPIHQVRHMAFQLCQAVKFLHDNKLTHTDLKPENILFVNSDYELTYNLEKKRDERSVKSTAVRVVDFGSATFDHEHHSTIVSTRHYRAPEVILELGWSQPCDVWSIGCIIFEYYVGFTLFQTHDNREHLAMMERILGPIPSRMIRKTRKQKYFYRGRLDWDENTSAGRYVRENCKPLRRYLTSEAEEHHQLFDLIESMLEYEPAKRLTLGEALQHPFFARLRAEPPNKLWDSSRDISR
# assay_notes: Dundee kinase panel
# Assay type: biochemical
# condition_label: read-out: residual activity
A bare number is not enough; add the unit after it.

{"smiles_code": "COCCOc1ccc(-c2cn(-c3ccccc3)c3nc[nH]c(=O)c23)cc1", "result": "73%"}
{"smiles_code": "O=C1Cc2c([nH]c3ccc(Br)cc23)-c2ccccc2N1", "result": "109%"}
{"smiles_code": "Oc1ncnc2c1c(-c1ccccc1)cn2-c1ccccc1", "result": "94%"}

Please look at the following compound next.
INPUT: Give remaining activity at 1 µM (CLK2 (Homo sapiens)) of the following compound: O=C1Nc2ccc(I)cc2/C1=C/c1cc(Br)c(O)c(Br)c1
OUTPUT: 53%
